Biological target: Variant Surface Glycoprotein VSG2, soluble purified form (Trypanosoma brucei, UniProt P26332)
Assay: SEC
measuredEndpoint: binding result

Observe how each entry below is paired with its result.
NB19_(VSG2) mutant E114A (VHH) VHH: QVQLQESGGGLVQAGGSLRLSCAASERTFSSLGMGWFRQGPGKEREFAAAISWSGVSTYYADSVKGRFTISRDNDKNTVYLQMNSLKPDDTAVYYCAATSSWNDMALKSAGWYAYWGQGTQVTVSS ... no binding
NB19_(VSG2) mutant E114/Y115A (VHH) VHH: QVQLQESGGGLVQAGGSLRLSCAASERTFSSLGMGWFRQGPGKEREFAAAISWSGVSTYYADSVKGRFTISRDNDKNTVYLQMNSLKPDDTAVYYCAATSSWNDMALKSAGWYAAWGQGTQVTVSS ... no binding
NB11_(VSG2) mutant L100A (VHH) VHH: QVQLQESGGGLVQAGGSLTLSCAVSGLTFSNYAMGWFRQAPGKEREFVAAITWDGGNTYYTDSVKGRFTISRDNAKNTVFLQMNSLKPEDTAVYYCAAKALGSSRYELALAGYDYWGQGTQVTVSS ... binds
NB11_(VSG2) mutant S103A (VHH) VHH: QVQLQESGGGLVQAGGSLTLSCAVSGLTFSNYAMGWFRQAPGKEREFVAAITWDGGNTYYTDSVKGRFTISRDNAKNTVFLQMNSLKPEDTAVYYCAAKLLGASRYELALAGYDYWGQGTQVTVSS ... binds
NB19_(VSG2) mutant Y115A (VHH) VHH: QVQLQESGGGLVQAGGSLRLSCAASERTFSSLGMGWFRQGPGKEREFAAAISWSGVSTYYADSVKGRFTISRDNDKNTVYLQMNSLKPDDTAVYYCAATSSWNDMALKSAGWYEAWGQGTQVTVSS ... no binding

Request: What does the record list as binding result for NB11_(VSG2) triple mutant L100/L101/S103 (VHH) VHH: QVQLQESGGGLVQAGGSLTLSCAVSGLTFSNYAMGWFRQAPGKEREFVAAITWDGGNTYYTDSVKGRFTISRDNAKNTVFLQMNSLKPEDTAVYYCAAKAAGASRYELALAGYDYWGQGTQVTVSS ?
Response: no binding

Request: // repeat for NB19_(VSG2) (VHH) VHH: QVQLQESGGGLVQAGGSLRLSCAASERTFSSLGMGWFRQGPGKEREFAAAISWSGVSTYYADSVKGRFTISRDNDKNTVYLQMNSLKPDDTAVYYCAATSSWNDMALKSAGWYEYWGQGTQVTVSS and report
Response: binds

Request: // repeat for NB11_(VSG2) mutant L101A (VHH) VHH: QVQLQESGGGLVQAGGSLTLSCAVSGLTFSNYAMGWFRQAPGKEREFVAAITWDGGNTYYTDSVKGRFTISRDNAKNTVFLQMNSLKPEDTAVYYCAAKLAGSSRYELALAGYDYWGQGTQVTVSS and report
Response: binds

Source: paper doi:10.1101/2021.01.13.426364
